Target: recombinant human plasminogen activator inhibitor-1 (PAI-1) (Homo sapiens, UniProt P05121)
Construct: purchased Molecular Innovations, Royal Oak, Mich
Sequence (P05121 24-402): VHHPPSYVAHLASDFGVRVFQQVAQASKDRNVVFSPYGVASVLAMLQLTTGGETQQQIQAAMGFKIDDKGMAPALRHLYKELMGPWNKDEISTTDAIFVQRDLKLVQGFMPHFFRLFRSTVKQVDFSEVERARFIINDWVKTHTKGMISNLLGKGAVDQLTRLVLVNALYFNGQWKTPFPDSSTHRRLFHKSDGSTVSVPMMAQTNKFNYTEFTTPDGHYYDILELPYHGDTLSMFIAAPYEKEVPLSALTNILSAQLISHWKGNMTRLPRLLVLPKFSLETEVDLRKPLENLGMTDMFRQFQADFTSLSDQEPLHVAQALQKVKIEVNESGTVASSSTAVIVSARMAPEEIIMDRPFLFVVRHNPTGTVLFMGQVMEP
Assay: Primary screen for the PAI-1 inhibition (chromogenic tPA activity, Spectrozyme-tPA)
Type: biochemical
Details: compound at 100 μM
Experimental: Test compounds are dissolved in DMSO at a final concentration of 10 mM, then diluted 100× in physiologic buffer. […] Following the second incubation, Spectrozyme-tPA (American Diagnostica, Greenwich, Conn.), a chromogenic substrate for tPA, is added and absorbance read at 405 nm at 0 and 60 minutes. […]
property measured: inhibition at 100 µM (%)
Respond with the bare value in %.

# compound structure, inhibition at 100 µM [%]
rows = [
    ("O=c1[nH]c(=O)n(Cc2cccc(-c3cccc(OCc4cccc(Cl)c4)c3)c2)o1", 99),
]

What value of inhibition at 100 µM has been reported for the following compound? `O=c1[nH]c(=O)n(Cc2ccc(C#Cc3ccccc3)cc2)o1`
65

What value of inhibition at 100 µM has been reported for the following compound? `COc1cc(Cn2oc(=O)[nH]c2=O)cc(OCc2cccc(C)c2)c1OCc1cccc(C)c1`
88

What value of inhibition at 100 µM has been reported for the following compound? `O=c1[nH]c(=O)n(Cc2cc(OCc3cccc(Br)c3)cc(OCc3cccc(Br)c3)c2)o1`
92

----------
target: recombinant human plasminogen activator inhibitor-1 (PAI-1) (Homo sapiens, UniProt P05121); construct: purchased Molecular Innovations, Royal Oak, Mich; assay: Primary screen for the PAI-1 inhibition (chromogenic tPA activity, Spectrozyme-tPA); type: biochemical; conditions: compound at 100 μM
property measured: inhibition at 100 µM
I'd appreciate it if you wrote the number followed by its unit.

# compound structure, inhibition at 100 µM
measured = [
    ("O=c1[nH]c(=O)n(Cc2cccc(-c3cccc(OCc4ccc(Cl)c(Cl)c4)c3)c2)o1", "100%"),
]

What value of inhibition at 100 µM has been reported for the following compound? `Cc1cccc(COc2cccc(-c3cccc(Cn4oc(=O)[nH]c4=O)c3)c2)c1`
80%

What value of inhibition at 100 µM has been reported for the following compound? `O=c1[nH]c(=O)n(Cc2cccc(OCc3ccc(C(F)(F)F)cc3)c2OCc2ccc(C(F)(F)F)cc2)o1`
92%

What value of inhibition at 100 µM has been reported for the following compound? `O=c1[nH]c(=O)n(Cc2cccc(C#CCOc3cccc(Cl)c3)c2)o1`
85%

----------
molecular target: recombinant human plasminogen activator inhibitor-1 (PAI-1) (Homo sapiens); construct: purchased Molecular Innovations, Royal Oak, Mich; experiment: Primary screen for the PAI-1 inhibition (chromogenic tPA activity, Spectrozyme-tPA); format: biochemical; details: compound at 100 μM
Below, each entry is listed with its recorded inhibition at 100 µM.
Respond with the bare value in %.

# annotated cases, reported inhibition at 100 µM shown
# compound, units of measure, value measured
data = [
    ("O=c1[nH]c(=O)n(Cc2ccc(OCc3ccccc3Br)c(OCc3ccccc3Br)c2)o1 [Compound 90]", "%", 94),
    ("C#CCn1cc(Cn2oc(=O)[nH]c2=O)c2cc(OCc3ccc4ccccc4c3)ccc21 [Compound 20]", "%", 84),
    ("O=c1[nH]c(=O)n(Cc2cccc(OCc3cccc(Cl)c3)c2OCc2cccc(Cl)c2)o1 [Compound 83]", "%", 95),
]

What value of inhibition at 100 µM has been reported for the following compound? C=CCn1cc(Cn2oc(=O)[nH]c2=O)c2cc(OCc3cccc(C(F)(F)F)c3)ccc21 [Compound 29]
79
